Entries annotated with measured cytotoxicity at 10 µM
test: Toxicity liver stage against HepG2, at 10uM; format: cell-based; design: test concentration 10 uM, cell line HepG2-A16-CD81EGFP; settings: human, HepG2-A16-CD81EGFP cells; read-out: INHIBITION
readout.name: cytotoxicity at 10 µM (%)

1. O=C(Cc1cccs1)N1CC[C@H]2[C@@H]1CCC(=O)N2c1cccnc1 | 3.94
2. COc1cccc(N2CCN(C(=O)c3ccc(=O)n(C)c3)CC2)c1 | -7.81
3. Cc1nc(CN(C)C(=O)Nc2cccc(COC(C)C)c2)no1 | 8.45
4. CC[C@@H](NC(C)=O)C(=O)NCc1cccnc1Oc1ccccc1OC | -3.06
5. O=C(NCCNc1cnccn1)c1scnc1Cl | 8.11
6. Cn1cc(C(=O)N2CCCC(c3cc(O)n(C)n3)C2)cn1 (stereo unspecified) | -21.6

---

assay: Toxicity liver stage against HepG2, at 10uM; type: cell-based; set-up: test concentration 10 uM, cell line HepG2-A16-CD81EGFP; details: human, HepG2-A16-CD81EGFP cells; read-out: INHIBITION
readout.name: cytotoxicity at 10 µM (%)

1) Cn1cc(Cl)c(C(=O)N2CCc3nc4sccc4c(=O)n3CC2)n1 | -3.04
2) CS(=O)(=O)c1ccccc1-n1cc(NC(=O)CC(F)(F)F)cn1 | 1.42
3) CC(=O)N(C)CCc1nc(-c2cc(C(N)=O)co2)cs1 | -4.99
4) COc1ccc(-n2cc(CNC(=O)c3cc[nH]n3)nn2)cc1 | -4.71
5) Cc1cc(C)c(CNC(=O)C2CCN(c3cnccn3)CC2)c(=O)[nH]1 | -10.7
6) COc1ccccc1COCC(O)CN(C)c1ccc(C)cc1C (stereo not drawn) | 9.6
7) CCCn1nc2c(cc1=O)CN(C(C)C(=O)Nc1nccs1)CC2 (stereo not drawn) | -1.99
8) CC(C)(C)CC(=O)NCCn1ccc(-c2ccncc2)n1 | -3.4
9) O=C(O)c1ccn(-c2cccc(NC(=O)c3ccccc3Cl)c2)n1 | -139
10) COCCN(Cc1cnn(C)c1)C(=O)C1CCC(=O)N(C2CCCC2)C1 (stereo not drawn) | 6.11
11) CSc1ccc(CN(C(=O)c2cc(C)[nH]c(=O)c2)C2CC2)cc1 | -49.5
12) COc1cc(C)sc1C(=O)N1CCC(Nc2cccnc2)CC1 | -5.07
13) CCC1c2ccsc2CCN1C(=O)NCc1cccnc1N(C)C (stereo not drawn) | -17.4
14) COc1ccc(CC(C)(O)CNC(=O)c2cccs2)cc1 (stereo not drawn) | -4.69
15) CN(C(=O)c1cccnc1)C1CCCN(CCc2ccccc2)C1 (stereo not drawn) | -3.59
16) Cc1n[nH]c(C)c1CNC(=O)N1CCCC(Cc2nccn2C)C1 (stereo not drawn) | -19.2
17) COc1cccc(N2CCN(Cc3ccc(NC(C)=O)cc3)CC2=O)c1 | -15.4
18) COCCN(C/C=C/c1ccccc1)Cc1nccs1 | 42.8
19) CCOCC(O)CN1CCN(C(=O)c2ccncc2)CC1 (stereo not drawn) | 10
20) Cc1n[nH]c(C)c1S(=O)(=O)N1CCC(Oc2cnccn2)CC1 | 3.15
21) Cc1nc(O)cc(C2CCN(C(=O)c3ccsc3)CC2)n1 | -4.97
22) CC(C)c1noc(CCCC(=O)N2CCC(Cc3cccnc3)CC2)n1 | -5.43
23) Cc1ccc(OC2(C(=O)O)CCN(C/C=C/c3ccco3)CC2)cc1 | -14.4
24) COc1cccc(-c2noc(-c3ccc(N4CC(N)C4)nc3)n2)c1OC | -4.8
25) COc1ccc(Cl)cc1CNCCCn1ccnc1 | 8.32
26) O=C(CN1CCCC1Cn1cncn1)NCCOc1ccc(F)cc1 (stereo not drawn) | -3.56
27) Cc1cnn(CC(C)NCc2c(C)nn(Cc3ccccc3)c2C)c1 (stereo not drawn) | -4.66
28) c1ccc(-c2cc(CN3CCCC(Cn4cncn4)C3)on2)cc1 (stereo not drawn) | -15.9
29) COCC(C)(CCO)NC(=O)Nc1cccc(F)c1C (stereo not drawn) | 7.94
30) CC(C)NC(=O)N1CCN(C(=O)N(C)C)CC2(CC(=O)N(C)C2)C1 (stereo not drawn) | -17.8
31) CCc1cnc(C)nc1NC(CC)c1ncnn1CC (stereo not drawn) | -10.2
32) COc1ccc(C[C@H]2CN(c3nnc(C)s3)CC[C@@H]2OC)cc1 | -3.23
33) CC(C)(C)OC(=O)N1CSC[C@@H]1C(=O)NCc1ccncc1 | 1.17
34) O=C(C1CCCOC1)N1CCN(CC(F)(F)F)c2ccccc21 (stereo not drawn) | 8.09
35) CCc1nc(C2CCCN2Cc2cnc(C)cn2)no1 (stereo not drawn) | -14.6
36) O=C(N1CCCC1)N1CCc2c(CNc3ncccn3)cncc2C1 | 3.97
37) Cc1nc(CN2CCCC(CCc3ccccc3C(F)(F)F)C2)no1 (stereo not drawn) | 2.79
38) Cc1cc(C2CCCN(Cc3nc(Cc4ccccc4)no3)C2)n[nH]1 (stereo not drawn) | 3.82
39) O=C(NC1CC(=O)N(C2Cc3ccccc3C2)C1)c1ccsc1 (stereo not drawn) | -1.98
40) OCCN1CCC(CNCc2ccccc2OC(F)(F)F)CC1 | -13.7
41) Cc1ccsc1C(=O)NCCCn1nc2ccccn2c1=O | -1.1
42) Cc1ccccc1CN(C)C(=O)CN1CCCC(Cn2cncn2)C1 (stereo not drawn) | -2.87
43) COCc1ccc(CNc2cncc(-n3cccn3)n2)cc1 | 6
44) CNc1cc(C2CCCN(Cc3ccccc3OCC(=O)O)C2)ccn1 (stereo not drawn) | -24.8
45) O=C(C(CNCc1cccc(O)c1)c1ccccc1)N1CCOCC1 (stereo not drawn) | -2.06
46) Cc1ccc(CNC(=O)N2CCN(Cc3ccsc3)CC2)n1C | 9.58
47) CC(C)Nc1ccc2c(c1)C1(CCOCC1)C(=O)N2c1ccsc1 | 11
48) CCCc1nncn1-c1cc(OC)ccc1OC | 7.93
